Test system: SK-MEL-5
Experiment: NCI tumour cell line growth inhibition, 48 h
Calls of active or inactive are those of the source. Rule as the data show it: active = GI50 up to about 1.1 µM and inactive = higher.
Quick list: GI50 per entry.

Worked set:
CC(=O)C1C(=O)N(C(C)C)C[C@@H]2CCC(=O)C[C@H]12 (some centres undefined) :: > 100 µM (inactive)
Cc1cc(N(CCC#N)CCC#N)ccc1/N=N/c1cc(Cl)ccc1Cl :: 16.4 µM (inactive)
O=C(c1ccc(Cl)cc1)N(C(=S)N1CCN(c2ccccn2)CC1)C1CCCCC1 :: 38.7 µM (inactive)

// query Quick check: GI50 of CCOC(=O)C(Cl)(NC(=O)c1c(F)c(F)c(F)c(F)c1F)C(F)(F)F (centres undefined) ?
// result > 100 µM (inactive)

====

System: EKVX
Assay: NCI tumour cell line growth inhibition, 48 h
The source made the active and inactive calls. Cut-off read from the data, not from the text of the source: active = GI50 up to about 1.1 µM and inactive = higher.
READOUT_LABEL: GI50

As a guide, the following entries are already answered.
O=C(CN1CCN(c2ccccc2)CC1)c1ccc2[nH]c(=O)oc2c1 :: > 100 µM (inactive)
COc1ccc2cc(CN3CCC(C4CCN(Cc5ccc6cc(OC)ccc6c5)CC4)CC3)ccc2c1 :: 11.9 µM (inactive)
Cc1ccccc1-c1c(N)nc(NC#N)nc1C(=O)Nc1ccccc1 :: > 100 µM (inactive)
CCCCCC[N+](C)(C)Cc1ccc(C[N+](C)(C)CCCCCC)cc1 :: 3.94 µM (inactive)
NC(=O)c1[nH]nc(C2OC(CO)C(O)C2O)c1O (configuration not stated) :: 52.6 µM (inactive)
Cc1cc(N(CCC#N)CCC#N)ccc1/N=N/c1cc(Cl)ccc1Cl :: 13.6 µM (inactive)

// query Which GI50 value belongs to CC/C=C(\C(=C/CC)[N+](=O)[O-])[N+](=O)[O-] ?
// result 15.6 µM (inactive)

====

In this section we review reported GI50 values for a set of compounds.
Test system: DU-145
Assay: NCI tumour cell line growth inhibition, 48 h
The source made the active and inactive calls. No stated cut-off is given here; in the data, active = GI50 up to about 1.1 µM and inactive = higher.

# annotated cases, reported GI50 shown
N#CC(C#N)=C1C(C#N)=C(N)NC12OCCO2 :: > 100 µM (inactive)
O=C1NC(=O)C(CC2CCCCCCCCCCC2=O)C(=O)N1 (stereo not drawn) :: > 100 µM (inactive)
CCN(CC)CCCNc1[nH]c2ccccc2c2nc3ccc(OC)cc3c1-2 :: 2.64 µM (inactive)
O=C(NCc1ccccc1Cl)c1c(O)c2ccccc2[nH]c1=O :: > 100 µM (inactive)
CC#CCCCC1(C)CCNC1=S (stereo not drawn) :: > 10 µM (inactive)
CCOc1cc(NC(C)=O)ccc1C(=O)NN1C(=O)C(Cl)C1c1ccc(O)c(OC)c1 (stereo not drawn) :: 15.6 µM (inactive)

// query Dear colleague, I am looking for the recorded GI50 of the following compound: CCCc1[nH]c2ccccc2c1-c1c(CCC)[nH]c2ccccc12
// result 11.3 µM (inactive)

// query Name the reported GI50 value associated with the compound C=C1C(=O)OC2C1CCC(=C)C1CC(O)C(=C)C12 (stereo not drawn)
// result 15 µM (inactive)

// query I have this compound here, CC12Nc3c(Cl)cc(Cl)cc3N1C(=O)c1ccccc12 (stereo not drawn) , and I need its recorded GI50.
// result > 100 µM (inactive)

// query Record request: GI50 value, item COc1ccc(C2c3cc4c(cc3OC(N3CCOCC3)C2C)OCO4)cc1OC (stereo not drawn)
// result 9.42 µM (inactive)

// query I have this compound here, [N-]=[N+]=C1N=CN=C1c1nc[nH]n1 , and I need its recorded GI50.
// result 48.5 µM (inactive)
